# procedureDetails: Displacement of Biocillin FL from Streptococcus pneumoniae 24 PBP2A
# label = Y if IC50 < 0.08 µg/mL else N

compound | classification
CO/N=C(\C(=O)N[C@@H]1C(=O)N2C(C(=O)O)=C(COC(N)=O)CS[C@H]12)c1ccco1 | Y
CC1(C)S[C@@H]2[C@H](NC(=O)Cc3ccccc3)C(=O)N2[C@H]1C(=O)O | N
C[C@@H](O)[C@H]1C(=O)N2C(C(=O)O)=C([C@H]3CCCO3)S[C@H]12 | Y
CC1(C)S[C@@H]2[C@H](NC(=O)[C@H](N)c3ccc(O)cc3)C(=O)N2[C@H]1C(=O)O | Y
C[C@@H](O)[C@H]1C(=O)N2C(C(=O)O)=C(SCCNC=N)C[C@H]12 [IMIPENEM ANHYDROUS] | N

Measured values drawn from ChEMBL document CHEMBL1649182 for this set.
